# System: mGrn mRNA
# assay summary: mGrn mRNA qPCR in Neuro2a cells transfected with ASOs
# Format: cell-based, mouse
# conditions used: Table 16; Neuro2A, 40 nM, transfection
Oligonucleotides are written 5' to 3', each unit as a sugar letter and its base; * is a phosphorothioate linkage, no mark a phosphodiester; rarer units and linkages stand in square brackets, end groups in braces. Plain capitals give the bases only. e = 2'-O-(2-methoxyethyl) (MOE); l = locked nucleic acid (LNA); [5mC] = 5-methylcytosine
experimental endpoint: 40 nM FC (mGrn mRNA) (FC)
One number for each entry, in FC.

Answered cases to consult:
>  <substance>
CO-5303: CO-3595 modified to include varying PO/PS internucleotide bonds (antisense e[5mC]*e[5mC]*eTeGeAeAe[5mC]eTeGeTeAeTeGeGe[5mC]eTeG*eA*e[5mC]*e[5mC])

>  <40 nM FC (mGrn mRNA) [FC]>
1.3

$$$$
>  <substance>
CO-5315: CO-3595 modified to include varying PO/PS internucleotide bonds (antisense l[5mC]*l[5mC]*eT*lG*eA*lA*e[5mC]*lT*eG*lT*eA*lT*eG*lG*e[5mC]*lT*lG*eA*l[5mC]*l[5mC])

>  <40 nM FC (mGrn mRNA) [FC]>
1.3

$$$$

Quick request: 40 nM FC (mGrn mRNA) for each listed item, please.
1. CO-5308: CO-3595 modified to include varying PO/PS internucleotide bonds (antisense e[5mC]*e[5mC]*eT*eG*eA*eA*e[5mC]*eT*eG*eT*eA*eT*eGeGe[5mC]eTeG*eA*e[5mC]*e[5mC])
2. CO-5310: CO-3595 modified to include varying PO/PS internucleotide bonds (antisense e[5mC]*e[5mC]*eTeGeAeAe[5mC]eTeGeTeAeTeGeG*e[5mC]*eT*eG*eA*e[5mC]*e[5mC])

1: 1.3; 2: 1.1
